Each entry below lists one item and its recorded viability, T/C value.
- System: 463943-066-T-J2-PDC complex spheroid growth
- Method description: Anticancer human tumor 463943-066-T-J2-PDC patient-derived colon adenocarcinoma cell line growth inhibition [Asc]
- Measurement setup: second compound 0.01 µM; first compound 0.1 µM; stronger effect = lower value
Recorded metric: viability, T/C (%)

Compound | Unit of measure | Measured number
CCN1CCN(Cc2ccc(Nc3ncc(F)c(-c4cc(F)c5nc(C)n(C(C)C)c5c4)n3)nc2)CC1 + CNC(C)C(=O)NC1CN(S(=O)(=O)c2cccc(S(=O)(=O)N3CCC4CCC(C(=O)NC(c5ccccc5)c5ccccc5)N4C(=O)C(NC(=O)C(C)NC)C3)c2)CCC2CCC(C(=O)NC(c3ccccc3)c3ccccc3)N2C1=O | % | 92.2
Cn1ncnc1[C@H]1c2n[nH]c(=O)c3cc(F)cc(c23)N[C@@H]1c1ccc(F)cc1 + CNC(C)C(=O)NC1CN(S(=O)(=O)c2cccc(S(=O)(=O)N3CCC4CCC(C(=O)NC(c5ccccc5)c5ccccc5)N4C(=O)C(NC(=O)C(C)NC)C3)c2)CCC2CCC(C(=O)NC(c3ccccc3)c3ccccc3)N2C1=O | % | 87.2
O=C(c1ccc(F)c(F)c1Nc1ccc(I)cc1F)N1CC(O)([C@@H]2CCCCN2)C1 + CNC(C)C(=O)NC1CN(S(=O)(=O)c2cccc(S(=O)(=O)N3CCC4CCC(C(=O)NC(c5ccccc5)c5ccccc5)N4C(=O)C(NC(=O)C(C)NC)C3)c2)CCC2CCC(C(=O)NC(c3ccccc3)c3ccccc3)N2C1=O | % | 65.9

---

compounds and their reported viability, T/C
- Test system: 463943-066-T-J2-PDC complex spheroid growth
- Method description: Anticancer human tumor 463943-066-T-J2-PDC cell line growth inhibition [Asc];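 further: compound exposure lasted 7 days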;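 on viability, T/C: 100% = DMSO vehicle control wells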
- Measurement setup: second compound 0.00949 µM; first compound 0.00316 µM; stronger effect = lower value

Compound | viability, T/C [%]
COc1c(OCCCN2CCOCC2)ccc2c3n(c(=NC(=O)c4cnc(N)nc4)nc12)CCN3 + CCN1C(C(=O)NC23CCC(C(=O)O)(CC2)CC3)C(c2cccc(Cl)c2F)C2(C(=O)Nc3cc(Cl)ccc32)C12CCCCC2 | 89.5
O=C(c1ccc(F)c(F)c1Nc1ccc(I)cc1F)N1CC(O)([C@@H]2CCCCN2)C1 + CCN1C(C(=O)NC23CCC(C(=O)O)(CC2)CC3)C(c2cccc(Cl)c2F)C2(C(=O)Nc3cc(Cl)ccc32)C12CCCCC2 | 86.3
Cn1ncnc1[C@H]1c2n[nH]c(=O)c3cc(F)cc(c23)N[C@@H]1c1ccc(F)cc1 + CCN1C(C(=O)NC23CCC(C(=O)O)(CC2)CC3)C(c2cccc(Cl)c2F)C2(C(=O)Nc3cc(Cl)ccc32)C12CCCCC2 | 106
CNC(C)C(=O)NC1CN(S(=O)(=O)c2cccc(S(=O)(=O)N3CCC4CCC(C(=O)NC(c5ccccc5)c5ccccc5)N4C(=O)C(NC(=O)C(C)NC)C3)c2)CCC2CCC(C(=O)NC(c3ccccc3)c3ccccc3)N2C1=O (stereo unspecified) + CCN1C(C(=O)NC23CCC(C(=O)O)(CC2)CC3)C(c2cccc(Cl)c2F)C2(C(=O)Nc3cc(Cl)ccc32)C12CCCCC2 | 96.9
NC1CCC(NC2CC2c2ccccc2)CC1 (stereo unspecified) + CCN1C(C(=O)NC23CCC(C(=O)O)(CC2)CC3)C(c2cccc(Cl)c2F)C2(C(=O)Nc3cc(Cl)ccc32)C12CCCCC2 | 87.3
CCN1CCN(Cc2ccc(Nc3ncc(F)c(-c4cc(F)c5nc(C)n(C(C)C)c5c4)n3)nc2)CC1 + CCN1C(C(=O)NC23CCC(C(=O)O)(CC2)CC3)C(c2cccc(Cl)c2F)C2(C(=O)Nc3cc(Cl)ccc32)C12CCCCC2 | 99.6

---

- Test system: 463943-066-T-J2-PDC complex spheroid growth
- Method description: Anticancer human tumor 463943-066-T-J2-PDC cell line growth inhibition [Asc];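 further: compound exposure lasted 7 days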;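 on viability, T/C: 100% = DMSO vehicle control wells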
- Measurement setup: second compound 0.0316 µM; first compound 10 µM; stronger effect = lower value
Collected viability, T/C values appear next to each entry.

Compound | Unit of measure | viability, T/C
C#Cc1c(F)ccc2cc(O)cc(-c3ncc4c(N5CC6CCC(C5)N6)nc(OCC56CCCN5CC(F)C6)nc4c3F)c12 (centres undefined) + CNC(C)C(=O)NC1CN(S(=O)(=O)c2cccc(S(=O)(=O)N3CCC4CCC(C(=O)NC(c5ccccc5)c5ccccc5)N4C(=O)C(NC(=O)C(C)NC)C3)c2)CCC2CCC(C(=O)NC(c3ccccc3)c3ccccc3)N2C1=O | % | 91.3
C#Cc1c(F)ccc2cc(O)cc(-c3ncc4c(N5CC6CCC(C5)N6)nc(OCC56CCCN5CC(F)C6)nc4c3F)c12 (centres undefined) + Cc1c(S(C)(=O)=O)c(-c2cc(F)cc(N3CCN(c4ccc(NS(=O)(=O)c5ccc(NC(CCN6CCC(C(=O)OCCCP(=O)(O)O)CC6)CSc6ccccc6)c(S(=O)(=O)C(F)(F)F)c5)cc4)CC3)c2)c(-c2ccc(Cl)cc2)n1C(C)C | % | 97.5
C=CC(=O)N1CCN(c2nc(=O)n(-c3c(C)ccnc3C(C)C)c3nc(-c4c(O)cccc4F)c(F)cc23)C(C)C1 (centres undefined) + Cc1c(S(C)(=O)=O)c(-c2cc(F)cc(N3CCN(c4ccc(NS(=O)(=O)c5ccc(NC(CCN6CCC(C(=O)OCCCP(=O)(O)O)CC6)CSc6ccccc6)c(S(=O)(=O)C(F)(F)F)c5)cc4)CC3)c2)c(-c2ccc(Cl)cc2)n1C(C)C | % | 78.3
O=C(c1cc(Cc2n[nH]c(=O)c3ccccc23)ccc1F)N1CCN(C(=O)C2CC2)CC1 + CNC(C)C(=O)NC1CN(S(=O)(=O)c2cccc(S(=O)(=O)N3CCC4CCC(C(=O)NC(c5ccccc5)c5ccccc5)N4C(=O)C(NC(=O)C(C)NC)C3)c2)CCC2CCC(C(=O)NC(c3ccccc3)c3ccccc3)N2C1=O | % | 82.9

---

- System: 463943-066-T-J2-PDC complex spheroid growth
- Method description: Anticancer human tumor 463943-066-T-J2-PDC cell line growth inhibition [Asc];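 further: compound exposure lasted 7 days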
- Measurement setup: curve of first compound; second compound 0.0949 µM
Reported IC50 values are given for each entry in this list.

Compound | Unit of measure | Bound operator | IC50
NC1CCC(NC2CC2c2ccccc2)CC1 (stereo not drawn) + CCN1C(C(=O)NC23CCC(C(=O)O)(CC2)CC3)C(c2cccc(Cl)c2F)C2(C(=O)Nc3cc(Cl)ccc32)C12CCCCC2 | nM | > | 100
C=C(F)C(=O)N1CCN(c2nc(OCC3CCCN3C)nc3c2CCN(c2cccc4cccc(Cl)c24)C3)CC1CC#N (stereo not drawn) + CCN1C(C(=O)NC23CCC(C(=O)O)(CC2)CC3)C(c2cccc(Cl)c2F)C2(C(=O)Nc3cc(Cl)ccc32)C12CCCCC2 | nM | = | 6240
COc1c(OCCCN2CCOCC2)ccc2c3n(c(=NC(=O)c4cnc(N)nc4)nc12)CCN3 + CCN1C(C(=O)NC23CCC(C(=O)O)(CC2)CC3)C(c2cccc(Cl)c2F)C2(C(=O)Nc3cc(Cl)ccc32)C12CCCCC2 | nM | = | 231

---

- Tested on: 463943-066-T-J2-PDC complex spheroid growth
- Method description: Anticancer human tumor 463943-066-T-J2-PDC cell line growth inhibition [Asc];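 further: compound exposure lasted 7 days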;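 on viability, T/C: 100% = DMSO vehicle control wells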
- Measurement setup: second compound 0.949 µM; first compound 3.16 µM; stronger effect = lower value
Listed next: entries and their corresponding viability, T/C.
Recorded metric: viability, T/C (%)

Compound | Measured number
O=C(c1cc(Cc2n[nH]c(=O)c3ccccc23)ccc1F)N1CCN(C(=O)C2CC2)CC1 + CCN1C(C(=O)NC23CCC(C(=O)O)(CC2)CC3)C(c2cccc(Cl)c2F)C2(C(=O)Nc3cc(Cl)ccc32)C12CCCCC2 | 75.5
C=C(F)C(=O)N1CCN(c2nc(OCC3CCCN3C)nc3c2CCN(c2cccc4cccc(Cl)c24)C3)CC1CC#N (centres undefined) + CCN1C(C(=O)NC23CCC(C(=O)O)(CC2)CC3)C(c2cccc(Cl)c2F)C2(C(=O)Nc3cc(Cl)ccc32)C12CCCCC2 | 78.1
C#Cc1c(F)ccc2cc(O)cc(-c3ncc4c(N5CC6CCC(C5)N6)nc(OCC56CCCN5CC(F)C6)nc4c3F)c12 (centres undefined) + CCN1C(C(=O)NC23CCC(C(=O)O)(CC2)CC3)C(c2cccc(Cl)c2F)C2(C(=O)Nc3cc(Cl)ccc32)C12CCCCC2 | 75.3
C=CC(=O)N1CCN(c2nc(=O)n(-c3c(C)ccnc3C(C)C)c3nc(-c4c(O)cccc4F)c(F)cc23)C(C)C1 (centres undefined) + CCN1C(C(=O)NC23CCC(C(=O)O)(CC2)CC3)C(c2cccc(Cl)c2F)C2(C(=O)Nc3cc(Cl)ccc32)C12CCCCC2 | 78.2

---

In this section we review reported viability, T/C values for a set of compounds.
- Tested on: 463943-066-T-J2-PDC complex spheroid growth
- Method description: Anticancer human tumor 463943-066-T-J2-PDC cell line growth inhibition [Asc];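 further: compound exposure lasted 7 days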;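 on viability, T/C: 100% = DMSO vehicle control wells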
- Measurement setup: second compound 0.1 µM; first compound 3.16 µM; stronger effect = lower value

Compound | Unit of measure | viability, T/C
O=C(c1cc(Cc2n[nH]c(=O)c3ccccc23)ccc1F)N1CCN(C(=O)C2CC2)CC1 + CNC(C)C(=O)NC1CN(S(=O)(=O)c2cccc(S(=O)(=O)N3CCC4CCC(C(=O)NC(c5ccccc5)c5ccccc5)N4C(=O)C(NC(=O)C(C)NC)C3)c2)CCC2CCC(C(=O)NC(c3ccccc3)c3ccccc3)N2C1=O | % | 91.3
O=C(c1cc(Cc2n[nH]c(=O)c3ccccc23)ccc1F)N1CCN(C(=O)C2CC2)CC1 + Cc1c(S(C)(=O)=O)c(-c2cc(F)cc(N3CCN(c4ccc(NS(=O)(=O)c5ccc(NC(CCN6CCC(C(=O)OCCCP(=O)(O)O)CC6)CSc6ccccc6)c(S(=O)(=O)C(F)(F)F)c5)cc4)CC3)c2)c(-c2ccc(Cl)cc2)n1C(C)C | % | 94.6
C#Cc1c(F)ccc2cc(O)cc(-c3ncc4c(N5CC6CCC(C5)N6)nc(OCC56CCCN5CC(F)C6)nc4c3F)c12 (stereo not drawn) + Cc1c(S(C)(=O)=O)c(-c2cc(F)cc(N3CCN(c4ccc(NS(=O)(=O)c5ccc(NC(CCN6CCC(C(=O)OCCCP(=O)(O)O)CC6)CSc6ccccc6)c(S(=O)(=O)C(F)(F)F)c5)cc4)CC3)c2)c(-c2ccc(Cl)cc2)n1C(C)C | % | 98

Origin of values: PubChem BioAssay AID1963422
